- measurement target: Fatty acid synthase (Homo sapiens) (UniProt P49327)
- Sequence (P49327 whole entry, looked up): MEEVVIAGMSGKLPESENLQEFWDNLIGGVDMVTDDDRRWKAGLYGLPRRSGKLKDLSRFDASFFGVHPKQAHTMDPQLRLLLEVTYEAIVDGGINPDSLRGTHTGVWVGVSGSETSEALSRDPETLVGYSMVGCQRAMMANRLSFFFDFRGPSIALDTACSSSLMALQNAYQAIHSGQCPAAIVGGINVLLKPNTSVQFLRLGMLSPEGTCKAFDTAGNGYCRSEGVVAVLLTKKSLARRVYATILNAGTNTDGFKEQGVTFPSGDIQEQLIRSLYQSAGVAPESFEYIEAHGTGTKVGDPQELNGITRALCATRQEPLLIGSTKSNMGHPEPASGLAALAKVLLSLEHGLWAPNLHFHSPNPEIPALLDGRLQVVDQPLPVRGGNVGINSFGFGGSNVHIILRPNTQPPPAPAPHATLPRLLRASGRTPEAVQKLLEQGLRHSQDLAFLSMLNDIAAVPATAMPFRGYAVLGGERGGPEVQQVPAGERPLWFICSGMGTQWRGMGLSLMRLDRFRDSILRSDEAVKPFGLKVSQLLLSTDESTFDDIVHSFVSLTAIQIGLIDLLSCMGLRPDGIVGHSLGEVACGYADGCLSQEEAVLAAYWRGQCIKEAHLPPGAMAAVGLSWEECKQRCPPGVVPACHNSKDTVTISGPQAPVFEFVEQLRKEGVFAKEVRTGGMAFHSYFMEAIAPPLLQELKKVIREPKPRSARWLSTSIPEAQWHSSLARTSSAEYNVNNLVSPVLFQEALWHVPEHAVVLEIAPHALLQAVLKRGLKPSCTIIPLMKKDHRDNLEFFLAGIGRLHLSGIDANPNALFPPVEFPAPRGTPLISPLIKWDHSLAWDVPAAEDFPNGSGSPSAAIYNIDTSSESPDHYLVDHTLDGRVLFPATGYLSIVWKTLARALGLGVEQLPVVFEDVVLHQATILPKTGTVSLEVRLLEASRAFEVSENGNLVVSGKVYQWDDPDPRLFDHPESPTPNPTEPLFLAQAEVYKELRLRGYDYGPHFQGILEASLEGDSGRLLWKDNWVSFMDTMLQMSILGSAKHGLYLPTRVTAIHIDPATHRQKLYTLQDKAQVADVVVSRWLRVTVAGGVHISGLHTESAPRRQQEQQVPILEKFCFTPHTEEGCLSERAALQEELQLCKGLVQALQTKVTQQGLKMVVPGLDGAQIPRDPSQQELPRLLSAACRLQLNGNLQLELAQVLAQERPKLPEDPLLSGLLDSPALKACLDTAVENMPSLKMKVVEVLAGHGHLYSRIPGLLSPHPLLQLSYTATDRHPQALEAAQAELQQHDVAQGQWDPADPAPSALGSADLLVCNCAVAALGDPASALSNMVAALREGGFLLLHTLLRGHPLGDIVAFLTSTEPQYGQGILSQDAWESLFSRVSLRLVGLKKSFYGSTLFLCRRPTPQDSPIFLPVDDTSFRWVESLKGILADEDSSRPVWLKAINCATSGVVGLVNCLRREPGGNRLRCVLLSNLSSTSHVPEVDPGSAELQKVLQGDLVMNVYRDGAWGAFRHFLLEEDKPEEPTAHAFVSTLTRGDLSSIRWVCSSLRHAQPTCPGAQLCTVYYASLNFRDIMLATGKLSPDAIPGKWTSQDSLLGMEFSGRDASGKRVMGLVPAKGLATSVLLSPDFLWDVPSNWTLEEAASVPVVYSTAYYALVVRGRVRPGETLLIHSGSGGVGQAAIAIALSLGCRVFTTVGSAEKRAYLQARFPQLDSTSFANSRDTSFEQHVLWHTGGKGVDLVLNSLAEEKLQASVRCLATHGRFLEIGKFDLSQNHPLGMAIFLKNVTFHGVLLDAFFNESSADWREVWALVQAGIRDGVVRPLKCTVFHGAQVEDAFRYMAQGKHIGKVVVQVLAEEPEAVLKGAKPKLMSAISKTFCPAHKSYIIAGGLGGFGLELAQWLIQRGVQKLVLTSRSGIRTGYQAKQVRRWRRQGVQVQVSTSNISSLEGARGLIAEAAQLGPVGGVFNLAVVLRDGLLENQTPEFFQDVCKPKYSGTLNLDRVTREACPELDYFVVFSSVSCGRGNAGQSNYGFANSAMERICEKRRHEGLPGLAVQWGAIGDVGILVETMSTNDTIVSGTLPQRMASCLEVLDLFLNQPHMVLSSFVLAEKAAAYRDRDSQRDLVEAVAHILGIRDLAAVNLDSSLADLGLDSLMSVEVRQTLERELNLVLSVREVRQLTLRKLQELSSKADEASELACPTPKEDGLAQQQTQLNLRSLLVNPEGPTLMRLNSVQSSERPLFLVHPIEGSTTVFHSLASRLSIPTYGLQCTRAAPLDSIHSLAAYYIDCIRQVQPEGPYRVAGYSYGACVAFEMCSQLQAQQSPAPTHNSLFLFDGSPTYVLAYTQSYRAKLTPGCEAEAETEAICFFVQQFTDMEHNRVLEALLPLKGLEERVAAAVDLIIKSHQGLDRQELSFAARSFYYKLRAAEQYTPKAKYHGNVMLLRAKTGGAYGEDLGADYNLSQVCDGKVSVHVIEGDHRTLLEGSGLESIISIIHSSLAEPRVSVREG
- method: inhibition of human FAS-TE enzyme activity – biochemical, fluorescence intensity, uHTS, primary screen (AID 602261);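 further: 0% = DMSO with enzyme and 100% = substrate without enzyme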
- experimental context: recombinant FAS-TE, OMFH fluorogenic substrate, fluorescence endpoint; at 15 µM; hits give high values
The whole screen tested about 360,000 compounds, of which about 2,400 (0.67%) were called active. Only a selection was taken, and actives are over-represented in it overall.
I'd be grateful if you could share measured inhibition for these entries.
The reply should contain only the number, in %.

*Q* Find the measured inhibition: item COc1ccc(CCCNC(=O)C2Cc3c(-c4cccc(C(N)=O)c4)ccnc3O2)cc1 (stereo unspecified) , target or system Fatty acid synthase (Homo sapiens) (UniProt P49327).
*A* 1.7

*Q* Moving on to the next compound: COc1ccc(C(c2nnnn2Cc2cccs2)N2CCN(c3ccccc3)CC2)cc1OC (stereo unspecified)
*A* 14.2

*Q* `Cc1noc(C)c1S(=O)(=O)N(C)C[C@H]1OCCCC[C@@H](C)Oc2ccc(NC(=O)CCCN(C)C)cc2C(=O)N([C@H](C)CO)C[C@@H]1C` , same question.
*A* -10.2

*Q* Same read-out for `O=C(c1ccco1)N1CCN=C1SCc1cccc(Cl)c1` ?
*A* 5.3

*Q* Another compound to look at: `O=C(NC1=NCCS1)c1ccc(Cl)s1`
*A* -11.9

*Q* Then `O=C(Cn1nnc2ccccc2c1=O)Nc1cc(C(F)(F)F)ccc1N1CCOCC1` ?
*A* 5.9

*Q* # repeat for CC(=O)N(Cc1cccs1)C1CCOC(C)(C)C1 (stereo unspecified)
*A* -7.2

*Q* CCC1NC(=O)c2cccnc2-n2c1nc1ccc(C)cc1c2=O (stereo unspecified) , same question.
*A* -5.4

*Q* Also OC(CN1C2=NCCCN2c2ccccc21)c1ccc(Br)cc1 (stereo unspecified) , if possible.
*A* -4.6

*Q* Can you handle Cc1c(C(=O)N2CCCC2)c(S(=O)(=O)NCC(C)c2ccccc2)c(C)n1C (stereo unspecified) next?
*A* 2.1

*Q* Please give the result for CC1CCCCN1C(=O)CCS(=O)(=O)Cc1ccccc1 (stereo unspecified) too.
*A* -4.6
